Source listed as PubChem BioAssay (EPA / NIEHS).

Tested On: Bile acid receptor (Homo sapiens)
Protocol Text: OT_FXR_FXRSRC1_1440: Odyssey Thera (OT) 24-hour HEK293T Protein-Complementation Assay for Farnesoid X receptor/SRC-1 Co-activator (AID 2283384)
Records with an inconclusive call do not appear. Calls of active or inactive are those of the source. How the source made its calls: active means hit-call score of the fitted dose curve at least 0.9, where 1 is the maximum; inconclusive means response in the unintended direction; inactive means score below 0.9.
Log the outcome using a class from active, inactive

Query string: How did this test come out for COc1cccc(C(=O)NN(C(=O)c2cc(C)cc(C)c2)C(C)(C)C)c1C ?
Result string: active

Query string: How did this test come out for COP(=O)(OC)OC(Br)C(Cl)(Cl)Br (stereo unspecified) ?
Result string: inactive

Query string: How did this test come out for CC(COc1ccc(Oc2ccccc2)cc1)Oc1ccccn1 (stereo unspecified) ?
Result string: active

Query string: How did this test come out for Cc1ccn2nc(S(=O)(=O)Nc3c(F)cccc3F)nc2n1 ?
Result string: inactive

Query string: How did this test come out for CCOC(=O)CC(SP(=O)(OC)OC)C(=O)OCC (stereo unspecified) ?
Result string: inactive

Query string: How did this test come out for CC(C)N(C(=O)SCC(Cl)=C(Cl)Cl)C(C)C ?
Result string: active

----------
Protocol Text: BSK_SAg_SRB: Viability Assessment in the BioMAP Diversity Plus: SAg Assay (AID 2283096);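 further: cells read one day after compound addition; hits may be either gain or loss of signal compared with DMSO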
Reported Conditions: primary human HUVEC with PBMC
Procedure: BSK_SAg is a cell-based, multiplexed-readout assay that uses umbilical vein endothelium and peripheral blood mononuclear cells, a human vascular primary cell co-culture, with measurements taken at 24 hours after chemical dosing in a 96-well plate.BSK_SAg_SRB is an assay component measured in the BSK_SAg assay. […] This assay endpoint, BSK_SAg_SRB, was analyzed with bidirectional fitting relative to DMSO as the negative control and baseline of activity. […]
Calls of active or inactive are those of the source. How the source made its calls: active means hit-call score of the fitted dose curve at least 0.9, where 1 is the maximum; inactive means score below 0.9.
Log the outcome using a class from yes (active), no (inactive)

Query string: How did this test come out for O=c1ccc(=O)[nH][nH]1 ?
Result string: no

Query string: How did this test come out for CC(C)=CC1C(C(=O)OCN2C(=O)C3=C(CCCC3)C2=O)C1(C)C (stereo not drawn) ?
Result string: no

Query string: How did this test come out for CCOP(=O)(SC(C)CC)N1CCSC1=O (stereo not drawn) ?
Result string: no

Query string: How did this test come out for N#CSCSC#N ?
Result string: yes

Query string: How did this test come out for Cc1cc(C2CC2)nc(Nc2ccccc2)n1 ?
Result string: yes

Query string: How did this test come out for CN1COCN(Cc2cnc(Cl)s2)C1=N[N+](=O)[O-] ?
Result string: no

Query string: How did this test come out for CCOP(=O)(OCC)Oc1cc(C)nc(C(C)C)n1 ?
Result string: no

Query string: How did this test come out for CCOP(=O)(NC(C)C)Oc1ccc(SC)c(C)c1 (stereo not drawn) ?
Result string: no

Query string: How did this test come out for CC(C)N(C(=O)SCC(Cl)=C(Cl)Cl)C(C)C ?
Result string: yes

Query string: How did this test come out for CSc1nc(NC(C)C)nc(NC(C)C)n1 ?
Result string: no

Query string: How did this test come out for COP(=O)(OC)OC(Br)C(Cl)(Cl)Br (stereo not drawn) ?
Result string: yes

Query string: How did this test come out for CCCCSP(=O)(SCCCC)SCCCC ?
Result string: yes

Query string: How did this test come out for CSC1=N[C@@](C)(c2ccccc2)C(=O)N1Nc1ccccc1 ?
Result string: no

----------
Read-out: Cytochrome P450 (CYP1A1), CYP1A1 (gene 1543)
Protocol Text: LTEA_HepaRG_CYP1A1: Life Technologies and Expression Analysis (LTEA) Assay for Cytochrome P450 (CYP1A1) using HepaRG (AID 2283454)
Reported Conditions: mRNA level, 48 h; actives raise or lower the signal
Calls of active or inactive are those of the source. The calls were made as follows: active = hit-call score of the fitted dose curve at least 0.9, where 1 is the maximum; inactive = score below 0.9.
Measurement Type: AC50

Please review the entries below; each comes with its answer.
[[record]]
compound = "CNC(=O)ON=C(C)SC"
result = "inactive"

[[record]]
compound = "C[Si](Cn1cncn1)(c1ccc(F)cc1)c1ccc(F)cc1"
result = "5.08 µM (active)"

[[record]]
compound = "N#CSCSC#N"
result = "50 µM (active)"

[[record]]
compound = "CC(Oc1cccc(Cl)c1)C(=O)O (centres undefined)"
result = "inactive"

[[record]]
compound = "C#CCC1=C(C)C(OC(=O)C2C(C=C(C)C)C2(C)C)CC1=O (centres undefined)"
result = "49.8 µM (active)"

[[record]]
compound = "CCOP(=S)(OCC)Oc1ccc2c(C)c(Cl)c(=O)oc2c1"
result = "6.37 µM (active)"


Quick note, AC50 for CCOP(=S)(OCC)SCCSCC landed at inactive

Quick note, AC50 for Nc1nc(N)nc(NC2CC2)n1 landed at 50 µM (active)

Quick note, AC50 for CCOP(=O)(SC(C)CC)N1CCSC1=O (centres undefined) landed at inactive

----------
Read-out: CD38, CD38 (gene 952)
Protocol Text: BSK_SAg_CD38: BioMAP Diversity Plus: SAg Assay for CD38 Biomarker Activity (AID 2283087)
Reported Conditions: primary human HUVEC with PBMC; actives raise or lower the signal
Experimental: BSK_SAg is a cell-based, multiplexed-readout assay that uses umbilical vein endothelium and peripheral blood mononuclear cells, a human vascular primary cell co-culture, with measurements taken at 24 hours after chemical dosing in a 96-well plate.BSK_SAg_CD38 is one of 10 assay component(s) measured or calculated from the BSK_SAg assay. […] This assay endpoint, BSK_SAg_CD38, was analyzed with bidirectional fitting relative to DMSO as the negative control and baseline of activity. […]
Calls of active or inactive are those of the source. The calls were made as follows: active = hit-call score of the fitted dose curve at least 0.9, where 1 is the maximum; inactive = score below 0.9.
Log the outcome using a class from YES = active, NO = inactive

Query string: How did this test come out for CCNc1nc(Cl)nc(NC(C)(C)C#N)n1 ?
Result string: NO

Query string: How did this test come out for COP(=O)(NC(C)=O)SC (stereo not given) ?
Result string: NO

Query string: How did this test come out for CN(C)[C@@H]1C(=O)C(C(N)=O)=C(O)[C@@]2(O)C(=O)C3=C(O)c4c(O)cccc4[C@@](C)(O)[C@H]3[C@H](O)[C@@H]12 ?
Result string: NO

Query string: How did this test come out for CCOP(=O)(OCC)Oc1cc(C)nc(C(C)C)n1 ?
Result string: NO

Query string: How did this test come out for S=C1NCCN1 ?
Result string: NO

Query string: How did this test come out for C[Si](Cn1cncn1)(c1ccc(F)cc1)c1ccc(F)cc1 ?
Result string: YES

Query string: How did this test come out for CC(=NC#N)N(C)Cc1ccc(Cl)nc1 ?
Result string: NO

Query string: How did this test come out for CCC(CC)Nc1c([N+](=O)[O-])cc(C)c(C)c1[N+](=O)[O-] ?
Result string: YES

Query string: How did this test come out for CC(Oc1cccc(Cl)c1)C(=O)O (stereo not given) ?
Result string: NO

Query string: How did this test come out for CC1=NNC(=O)N(/N=C/c2cccnc2)C1 ?
Result string: NO

Query string: How did this test come out for CCOP(=S)(Oc1cnc(C(C)(C)C)nc1)OC(C)C (stereo not given) ?
Result string: YES

Query string: How did this test come out for COP(=O)(OC)SCn1c(=O)oc2cc(Cl)cnc21 ?
Result string: YES

Query string: How did this test come out for CC(C1CC1)C(O)(Cn1cncn1)c1ccc(Cl)cc1 (stereo not given) ?
Result string: NO

Query string: How did this test come out for CSC1=N[C@@](C)(c2ccccc2)C(=O)N1Nc1ccccc1 ?
Result string: YES

Query string: How did this test come out for CNc1cnn(-c2cccc(C(F)(F)F)c2)c(=O)c1Cl ?
Result string: YES

Query string: How did this test come out for CN(C)C(=O)Nc1cccc(C(F)(F)F)c1 ?
Result string: NO

Query string: How did this test come out for COP(=O)(OC)OC(Br)C(Cl)(Cl)Br (stereo not given) ?
Result string: YES

Query string: How did this test come out for COc1cccc(C(=O)NN(C(=O)c2cc(C)cc(C)c2)C(C)(C)C)c1C ?
Result string: NO

Query string: How did this test come out for Cc1ccn2nc(S(=O)(=O)Nc3c(F)cccc3F)nc2n1 ?
Result string: NO

Query string: How did this test come out for CCOP(=S)(OCC)OC(Cl)C(Cl)(Cl)Cl (stereo not given) ?
Result string: YES

Query string: How did this test come out for CNC(=O)ON=C(SC)C(=O)N(C)C ?
Result string: NO

Query string: How did this test come out for CC(C)[C@H](C(=O)O[C@H](C#N)c1cccc(Oc2ccccc2)c1)c1ccc(Cl)cc1 ?
Result string: NO

Query string: How did this test come out for CNC(=O)Oc1cccc2c1OC(C)(C)O2 ?
Result string: YES

Query string: How did this test come out for CN1COCN(Cc2cnc(Cl)s2)C1=N[N+](=O)[O-] ?
Result string: NO

Query string: How did this test come out for Cc1cc(C2CC2)nc(Nc2ccccc2)n1 ?
Result string: NO
